# Test system: HEK-293T
# ASSAY_DETAILS: Multiplex assay against HEK293T
# Format: toxicity, cell-based
# CONDITION_PARAMETERS: human, 12 h, 1 µM, compound concentration 1 uM, replicate 2
MEASUREMENT_TYPE: Total Cell Count

COMPOUND	VALUE
Cc1ccc(C(=O)Nc2cccc(C(F)(F)F)c2)cc1Nc1nc(-c2cccnc2)nc2c1cnn2C	162
O=C(Nc1ccc(-c2ccnc(Nc3ccc(N4CCOCC4)cc3)n2)cc1)[C@@H]1CCCN1	246
CCn1cc(-c2ccnc3[nH]c(-c4cccc(CN(C)C)c4)cc23)c(-c2ccc(NC(=O)N(C)C)cc2)n1	1405
COc1cc2ncnc(Nc3ccc(F)c(Cl)c3)c2cc1NC(=O)/C=C/CN1CCCCC1 [DACOMITINIB ANHYDROUS]	1314
COc1cccc2cc(-c3nc([C@H]4CC[C@H](C(=O)O)CC4)n4ncnc(N)c34)[nH]c12	997
NC(=O)c1cccc(-c2cc(Nc3ccc(OC(F)(F)F)cc3)ncn2)c1	1607
CCOc1cc2ncc(C#N)c(Nc3ccc(OCc4ccccn4)c(Cl)c3)c2cc1NC(=O)/C=C/CN(C)C	471
CCOC(=O)c1c(C)[nH]c2ccc3c(c12)CN1CCc2cc(OC)ccc2C1O3 (stereo not drawn)	132
